Quick reference: z-score of the listed items.
assay: basal MM1S mitochondrial membrane potential changes, profiling panel, cell-based, JC-1 fluorescence, 24 h, 100 nL compound (AID 1170); conditions: higher = more signal; further: test concentration not given here
observed-property: z-score

* CN1C(=O)C2C=CC(C(O)c3cccs3)N(Nc3ccccc3)C2C1=O (stereo not drawn) | -0.528
* COc1ccc(C(=O)Nc2ccc(CN3C(=O)[C@@]4(O[C@@H](CC(=O)N5CCC[C@H]5CO)[C@H]([Si](C)(C)c5ccc(OC)cc5)[C@H]4C)c4ccccc43)cc2)cc1 | -0.447
* CCOC(=O)C1=CCC(c2ccc(C)cc2)N(S(=O)(=O)c2ccc(C)cc2)C1 (stereo not drawn) | -1.82
* O=C1O[C@H](c2ccccc2)[C@H](c2ccccc2)N2[C@H]1[C@@H](C(=O)NC[C@H](O)c1ccccc1)[C@]1(C(=O)Nc3ccccc31)[C@H]2c1ccc(OCCO)cc1 | -1.21
* CCOC(=O)C[C@H]1[C@H](OC(=O)Cc2ccc3c(c2)OCO3)[C@@H](NC(=O)c2ccc(-c3ccccc3)cc2)c2cc(OCCCO)ccc2N1C(=O)c1ccc2ccccc2n1 | -0.903
* [N-]=[N+]=NCc1ccccc1[C@@H]1OC(c2ccc(OCCCO)cc2)=N[C@]1(Cc1ccccc1N=[N+]=[N-])C(=O)N1CCOCC1 | -1.42
* O=C1c2ccccc2[C@@]2(Cc3ccccc3N(CCN3CCOCC3)C2=O)[C@H](c2ccc(CO)cc2)N1Cc1ccccc1 | -0.253
* NCCCCCNC(=O)[C@@H]1C[C@@H]2C(=O)N[C@@H](Cc3ccccc3)C(=O)N2[C@@H]1c1cccc(OCCO)c1 | 0.894
* O=C1C2C=CC(C(O)c3c(F)cccc3Cl)N(Nc3ccccc3)C2C(=O)N1c1ccccc1 (stereo not drawn) | -0.488
* COCCOC(=O)N1C(=O)[C@@]2(c3cc(C#CCCO)ccc31)[C@H](c1ccc(OCCO)cc1)N1[C@H](c3ccccc3)[C@H](c3ccccc3)OC(=O)[C@H]1[C@@H]2C(=O)N1CCN(c2ncccn2)CC1 | -1.19
* COCCn1c(C(=O)N2CCCC2)cc2c1C[C@H]1CN(C(=O)c3ccccc3)[C@@](Cc3ccc(F)cc3)(C(=O)OC)[C@@H]21 | -1.37
* CC1(C)[C@@H]2CC(C(O)C3C=CC4C(=O)N(c5ccccc5)C(=O)C4N3Nc3ccccc3)=C[C@H]1C2 (stereo partly drawn) | -0.527
* C=CCOC(=O)[C@H]1[C@@H]2C(=O)O[C@@H](c3ccccc3)[C@@H](c3ccccc3)N2[C@@H](c2ccc(OCCOC(=O)[C@@H]3C[C@@H]4C(=O)N[C@@H](CCCCN(C)C)C(=O)N4[C@@H]3c3ccc(O)cc3)cc2)[C@]12C(=O)Nc1ccc(I)cc12 | -1.6
